Assay: inhibitors of PMA/ionomycin-induced NF-kB reporter, 697 cells, primary screen, B-cell NF-kB inhibitor project, cell-based, luminescence, uHTS (AID 435022)
Conditions: 697 B-cell NF-kB luciferase reporter, 16 h, at 4 µM, active compounds read high
In all, about 330,000 compounds went through this assay and about 1,100 (0.33%) were called active. This is one part of a sample in which actives are shown more often than they occur.
Label rule, in plain words: inhibition of 20% and up is Satisfied, under 20% is Not satisfied.

{"columns": ["testSmiles", "classAssignment"],
 "data": [
  ["O=C(NOCc1ccccc1)c1cccc([N+](=O)[O-])c1", "Not satisfied"],
  ["NCCCC[C@@H]1NC(=O)[C@H](CCC(=O)O)NC(=O)c2cc([N+](=O)[O-])cc(I)c2NCC[C@@H](C(N)=O)NC1=O", "Not satisfied"],
  ["O=C(NC(Nc1nc2ccc([N+](=O)[O-])cc2s1)(C(F)(F)F)C(F)(F)F)c1ccccc1", "Satisfied"],
  ["O=C(O)CCn1c(O)c(C=C2N=c3ccccc3=N2)sc1=S", "Satisfied"],
  ["O=C(O)CCn1c(Cc2ccccc2)nc2ccccc21", "Not satisfied"]
]}

---

compounds and their reported inhibition
Assay: inhibitors of PMA/ionomycin-induced NF-kB reporter, 697 cells, primary screen, B-cell NF-kB inhibitor project, cell-based, luminescence, uHTS (AID 435022)
Details: 697 B-cell NF-kB luciferase reporter, 16 h, at 4 µM, active compounds read high
Among all 330,000 compounds or so, about 1,100 (0.33%) were called active. Many of the other results were omitted from the sample, so actives are more common in it than they were.

{"columns": ["compound", "inhibition (%)"],
 "data": [
  ["O=C(Nc1ccc2c(c1)OCO2)c1ccc(N2C(=O)c3ccccc3C2=O)cc1", -7.07],
  ["Cc1nc2ccccc2c(=O)n1-c1ccc(NS(=O)(=O)c2ccc(F)cc2F)cc1", 1.55],
  ["CCOC(=O)CSc1nnc(CNC(=O)c2cccs2)n1-c1ccccc1", 9.72],
  ["CN(C)S(=O)(=O)c1ccc(N2CCCC2)c(C(=O)Nc2ccc(Br)cc2F)c1", 9.57],
  ["CCOc1cc(C(=O)N2CCc3cc(OC)c(OC)cc3C2)ccc1OC(F)F", 39.7],
  ["COc1cc2c(cc1OC)CN(C(=O)c1ccc(S(=O)(=O)N3CCCCCC3)cc1)CC2", 22.3],
  ["O=C(Cc1ccccc1)N1CCN(S(=O)(=O)c2ccc([N+](=O)[O-])cc2)CC1", 4.38],
  ["COC(=O)C1=C(C(=O)c2ccc(C)cc2)C(c2ccccc2)n2nnnc2N1 (centres undefined)", 36.7],
  ["COc1ccc(CCNC(=S)N2CCN(S(=O)(=O)c3ccc(F)cc3)CC2)cc1", -1.95],
  ["O=C(Nc1ccccc1N1CCN(C(=O)c2ccccc2)CC1)c1ccco1", 6.77],
  ["Cn1c(CCc2ccccc2)nnc1SCC(N)=O", -1.05],
  ["COc1ccc2[nH]c(C(=O)N/N=C/c3cc(OC)c(OC)c(OC)c3)cc2c1", -5.61],
  ["O=C(NCCCN1CCOCC1)c1cc(-c2cccc(O)c2)on1", 14.1],
  ["COc1cc(/C=C2/SC(=S)N(Cc3ccccc3)C2=O)cc(OC)c1O", 18.2],
  ["NC(=O)CC(NC(=O)Cc1cccc2ccccc12)c1ccc(NCc2cc(F)ccc2F)c([N+](=O)[O-])c1 (centres undefined)", 9.25],
  ["CCOC(=O)c1c(C)n(C)c2ccc(OC)c(NS(=O)(=O)CC)c12", -4.31],
  ["Cc1c(Cl)cnc(NC(=O)COC(=O)C2CCCC2)c1Cl", 2.7],
  ["C/C=C(/C)C(=O)OC1Cc2c(ccc3ccc(=O)oc23)OC1(C)C (centres undefined)", 47.2],
  ["O=C(O)CN(Cc1ccco1)S(=O)(=O)c1ccccc1", 18.8],
  ["CC12CN3CCN(CC(C3)/C1=N\\NC(=O)c1ccccc1N)C2", -5.67],
  ["COc1cc2c(cc1OC)CN(C(=O)c1cc(=O)c3ccccc3o1)CC2", -14.7],
  ["O=C(Cn1cnc2ccccc2c1=O)NNC(=O)c1ccccc1F", 1.67],
  ["CSc1ncccc1C(=O)OCc1ccc(Br)cc1", 5.14],
  ["C/C(=N\\Nc1nc(N2CCOCC2)nc(N2CCOCC2)n1)c1ccc([N+](=O)[O-])cc1", 5.8],
  ["O=C1Nc2ccc(Br)cc2/C1=N/N=C/C1=C(N2CCOCC2)C(=C\\c2ccccc2)/CC1", 13.3],
  ["O=C(C1CCCN(S(=O)(=O)c2ccc([N+](=O)[O-])cc2)C1)N1CCCCC1 (centres undefined)", -4.88],
  ["CC1=C(C(=O)OC2CCCCC2)C(c2cccnc2)n2ncnc2N1 (centres undefined)", -21.7],
  ["COc1cc(N=Cc2c(O)[nH]c3ccccc23)cc(OC)c1OC", 45.5],
  ["CNC(=O)c1ccc(NC(=O)c2cccc(C(F)(F)F)c2)cc1", 40.3],
  ["COc1ccccc1NC(=O)C1=C(C)Nc2nnnn2C1c1cccc(Br)c1 (centres undefined)", -22.3],
  ["O=C(CN1CCN(c2ccc(O)cc2)CC1)NC1CCCc2ccccc21 (centres undefined)", 6.1],
  ["Cc1cc(C)nc(N2CCC(C(=O)Nc3ccc4c(c3)OCCO4)CC2)n1", -5.99],
  ["OCCN1CCN(C(=S)c2ccc(-c3ccccc3)cc2)CC1", 55.1],
  ["O=Cc1c(NCCCN2CCCC2=O)c2ccccc2[nH]c1=O", 4.36],
  ["Cc1n[nH]c(C)c1S(=O)(=O)N1CCCC(C(=O)Nc2ccc(Br)cc2)C1 (centres undefined)", -12.3],
  ["CC(C)(C)C(=O)NCCCNc1ccc([N+](=O)[O-])cc1", 14.1],
  ["CN1CCN(CCCCOc2ccccc2-c2ccccc2)CC1", -15],
  ["COC1(C2=NCCN2)COc2ccccc2O1 (centres undefined)", 17.1],
  ["C/C(=N\\Nc1nc(Nc2ccccc2)nc(N2CCOCC2)n1)c1cccs1", 39.3],
  ["CCOc1ccc(C(=O)CCC(=O)NC2=NCCS2)cc1", 21.2],
  ["O=C(C1CCC1)N1CCN(S(=O)(=O)c2ccc([N+](=O)[O-])cc2)CC1", 38.2],
  ["CC(=O)Nc1nc(C)c(Cc2ccccc2)c(=O)[nH]1", 16.1],
  ["Cn1nc(C(F)(F)F)cc1-c1ccc(/C=C(\\C#N)C(=O)c2cccc(C(F)(F)F)c2)s1", -34.9],
  ["COc1ccc(-c2cc(C(=O)NCCCN3CCOCC3)no2)cc1", 28.1]
]}
